These data points were gathered from PubChem BioAssay AID1919006.

# System: 885512-296-R-J2-PDC complex spheroid growth, % test/control
# procedure-summary: Anticancer human tumor 885512-296-R-J2-PDC patient-derived breast carcinoma cell line growth inhibition [AhR]
# measurement-conditions: curve of first compound; second compound 1 µM
measured-property: IC50 (nM)

Answered examples (3):
>>> readout_number("CC1COCCN1c1cc(-c2ccnn2C)c2ccnc(-c3ccn[nH]3)c2n1 (stereo unspecified) + Cc1ccccc1N=Nc1ccc(NC(=O)c2ccnn2C)c(C)c1")
40.5
>>> readout_number("O=C(c1cc(Cc2n[nH]c(=O)c3ccccc23)ccc1F)N1CCN(C(=O)C2CC2)CC1 + CC(CO)NC(=O)c1cc(-c2ccc(Cl)cc2)nn(-c2cnn(C)c2)c1=O")
7140
>>> readout_number("CC[C@@]1(O)C(=O)OCc2c1cc1n(c2=O)Cc2cc3c(CN(C)C)c(O)ccc3nc2-1 + Cc1cncc(-c2nc(NCCc3c[nH]c4ccccc34)c3ncn(C(C)C)c3n2)c1")
4.47

[I] O=C(C=Cc1cccc(S(=O)(=O)Nc2ccccc2)c1)NO + Cc1ccccc1N=Nc1ccc(NC(=O)c2ccnn2C)c(C)c1
[II] COc1ccc([C@@H](O)c2cc(-c3ncnc4cc(N5CCOCC5)ccc34)c(F)cc2Cl)nn1 + Cc1cncc(-c2nc(NCCc3c[nH]c4ccccc34)c3ncn(C(C)C)c3n2)c1
Data request: In the pair I and II , the larger recorded IC50 belongs to which? Pick one and reply with its label.
Data returned: II

----------
molecules and their reported viability, T/C
# Tested on: 885512-296-R-J2-PDC complex spheroid growth, % test/control
# procedure-summary: Anticancer human tumor 885512-296-R-J2-PDC cell line growth inhibition [AhR];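 note: spheroids exposed to compounds for seven days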
# measurement-conditions: second compound 0.1 µM; first compound 0.003 µM; stronger effect = lower value
Could you give me the number in %? Just the number is fine.

Answered examples (5):
>>> readout_number("CCc1c2c(nc3ccc(O)cc13)-c1cc3c(c(=O)n1C2)COC(=O)[C@]3(O)CC + Cc1ccccc1N=Nc1ccc(NC(=O)c2ccnn2C)c(C)c1")
7.41
>>> readout_number("Nc1ncn(C2CC(O)C(CO)S2)c(=O)n1 (stereo unspecified) + CC(CO)NC(=O)c1cc(-c2ccc(Cl)cc2)nn(-c2cnn(C)c2)c1=O")
117
>>> readout_number("CC(C)CC(NC(=O)C(Cc1ccccc1)NC(=O)c1cnccn1)B(O)O (stereo unspecified) + CC(CO)NC(=O)c1cc(-c2ccc(Cl)cc2)nn(-c2cnn(C)c2)c1=O")
86.5
>>> readout_number("CC(C)CC(NC(=O)C(Cc1ccccc1)NC(=O)c1cnccn1)B(O)O (stereo unspecified) + Cc1ccccc1N=Nc1ccc(NC(=O)c2ccnn2C)c(C)c1")
105
>>> readout_number("CC(C)CC(NC(=O)C(Cc1ccccc1)NC(=O)c1cnccn1)B(O)O (stereo unspecified) + Cc1cncc(-c2nc(NCCc3c[nH]c4ccccc34)c3ncn(C(C)C)c3n2)c1")
114

Data request: Record request: viability, T/C value, item CCc1c2c(nc3ccc(O)cc13)-c1cc3c(c(=O)n1C2)COC(=O)[C@]3(O)CC + Cc1cncc(-c2nc(NCCc3c[nH]c4ccccc34)c3ncn(C(C)C)c3n2)c1
Data returned: 6.62

----------
# Tested on: 885512-296-R-J2-PDC complex spheroid growth, % test/control
# procedure-summary: Anticancer human tumor 885512-296-R-J2-PDC cell line growth inhibition [AhR];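 note: spheroids exposed to compounds for seven days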
# measurement-conditions: second compound 10 µM; first compound 0.0316 µM; stronger effect = lower value
compounds and their reported viability, T/C
Could you give me the number in %? Just the number is fine.

Answered examples (4):
>>> readout_number("Nc1ccn(C2OC(CO)C(O)C2(F)F)c(=O)n1 (stereo unspecified) + Cc1cncc(-c2nc(NCCc3c[nH]c4ccccc34)c3ncn(C(C)C)c3n2)c1")
8.48
>>> readout_number("CC1COCCN1c1cc(-c2ccnn2C)c2ccnc(-c3ccn[nH]3)c2n1 (stereo unspecified) + Cc1ccccc1N=Nc1ccc(NC(=O)c2ccnn2C)c(C)c1")
38.3
>>> readout_number("CC[C@@]1(O)C(=O)OCc2c1cc1n(c2=O)Cc2cc3c(CN(C)C)c(O)ccc3nc2-1 + CC(CO)NC(=O)c1cc(-c2ccc(Cl)cc2)nn(-c2cnn(C)c2)c1=O")
10
>>> readout_number("Cn1ncnc1C1c2n[nH]c(=O)c3cc(F)cc(c23)NC1c1ccc(F)cc1 (stereo unspecified) + Cc1cncc(-c2nc(NCCc3c[nH]c4ccccc34)c3ncn(C(C)C)c3n2)c1")
22.1

Data request: Record request: viability, T/C value, item COc1cccc2c1C(=O)c1c(O)c3c(c(O)c1C2=O)CC(O)(C(=O)CO)CC3OC1CC(N)C(O)C(C)O1 (stereo unspecified) + Cc1ccccc1N=Nc1ccc(NC(=O)c2ccnn2C)c(C)c1
Data returned: 13.2

Data request: Record request: viability, T/C value, item COc1ccc([C@@H](O)c2cc(-c3ncnc4cc(N5CCOCC5)ccc34)c(F)cc2Cl)nn1 + Cc1ccccc1N=Nc1ccc(NC(=O)c2ccnn2C)c(C)c1
Data returned: 46.2
